These data points were gathered from ChEMBL document CHEMBL5052835.

- target-or-system: Chloride anion exchanger (Mus musculus, UniProt Q9WVC8)
- Sequence (Q9WVC8 whole entry): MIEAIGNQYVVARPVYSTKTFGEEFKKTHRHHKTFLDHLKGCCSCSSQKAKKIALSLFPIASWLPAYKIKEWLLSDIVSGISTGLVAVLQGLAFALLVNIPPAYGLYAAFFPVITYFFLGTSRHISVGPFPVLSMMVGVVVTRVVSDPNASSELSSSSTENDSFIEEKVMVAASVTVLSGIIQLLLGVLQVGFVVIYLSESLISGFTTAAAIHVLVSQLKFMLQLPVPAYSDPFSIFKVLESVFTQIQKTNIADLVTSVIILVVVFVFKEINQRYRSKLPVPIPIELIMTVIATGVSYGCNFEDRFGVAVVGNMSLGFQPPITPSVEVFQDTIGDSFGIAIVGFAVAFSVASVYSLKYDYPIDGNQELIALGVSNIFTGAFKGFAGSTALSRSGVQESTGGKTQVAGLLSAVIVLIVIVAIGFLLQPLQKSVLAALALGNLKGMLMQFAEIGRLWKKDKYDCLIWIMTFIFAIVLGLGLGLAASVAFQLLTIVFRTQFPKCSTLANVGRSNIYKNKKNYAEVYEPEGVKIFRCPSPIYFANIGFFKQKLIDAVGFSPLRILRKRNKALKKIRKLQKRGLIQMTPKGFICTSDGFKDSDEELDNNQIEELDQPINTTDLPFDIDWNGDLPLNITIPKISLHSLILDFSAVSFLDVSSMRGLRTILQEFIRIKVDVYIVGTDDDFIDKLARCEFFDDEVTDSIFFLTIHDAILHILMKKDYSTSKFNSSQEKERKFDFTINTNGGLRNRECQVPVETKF
- assay-method-text: Inhibition of mouse Slc26a3 transfected in rat FRT cells preincubated with forskolin, 8-Br-cGMP and PMA and measured by fluorescence assay
- Type: cell-based
- condition-context: read-out: IC50
reported-endpoint: IC50 (nM)

Before answering, review these 2 worked examples.
O=C(CSc1nccn1-c1cccc(Cl)c1)Nc1ccc(Cl)cc1: 2200
O=C(CSc1nccn1-c1ccc(Cl)cc1)Nc1ccc(Br)cc1: 1800

a: Cc1cc(C)cc(-n2ccnc2SCC(=O)Nc2ccc(C)c(Cl)c2)c1
b: CCc1ccc(NC(=O)CSc2nccn2-c2cccc(C)c2C)cc1
c: CCc1ccc(NC(=O)CSc2nccn2-c2ccc(OC)cc2)cc1
d: O=C(CSc1nccn1-c1ccc(Cl)cc1)Nc1cccc(C(F)(F)F)c1
Exercise: Order the items by recorded IC50; the first position goes to the largest value. Respond with the label ranking, as requested.
Solution: d, c, b, a

A: Cc1cc(C)cc(-n2ccnc2SCC(=O)Nc2ccc(Cl)c(Cl)c2)c1
B: Cc1ccc(NC(=O)CSc2nccn2-c2ccc(Cl)cc2)cc1Cl
Exercise: I need your help: which of the pair A , B has higher IC50? Mark your answer with the label of the selected entry.
Solution: B
(B: 11000 nM, A: 2500 nM)
